Values from the supplement of paper PMC7877785

- assay: self-splicing fitness, log relative to wild type (ln ratio); higher = more splicing; Tetrahymena group I intron in knt gene, E. coli kanamycin selection, DiMSum; sequences stand for … in CUCUCU…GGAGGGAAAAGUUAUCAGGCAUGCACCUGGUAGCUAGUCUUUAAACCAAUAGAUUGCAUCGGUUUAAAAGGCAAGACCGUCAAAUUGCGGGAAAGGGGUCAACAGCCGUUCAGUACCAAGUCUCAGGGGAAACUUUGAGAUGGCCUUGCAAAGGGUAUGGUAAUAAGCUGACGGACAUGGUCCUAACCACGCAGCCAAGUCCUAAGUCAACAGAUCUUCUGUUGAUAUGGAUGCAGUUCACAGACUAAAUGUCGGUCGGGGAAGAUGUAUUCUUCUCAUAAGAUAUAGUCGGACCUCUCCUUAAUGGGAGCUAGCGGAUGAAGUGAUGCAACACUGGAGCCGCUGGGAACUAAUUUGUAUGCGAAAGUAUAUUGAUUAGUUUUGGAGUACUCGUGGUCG;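 note: selection with 25 µg/mL kanamycin versus none on LB agar overnight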
- recorded-conditions: 30 °C
Categorize each record by its self-splicing fitness (ln) using I (below -3), II (-3 to below -2), III (-2 or more)

Exam item: Which self-splicing fitness (ln) category applies to `UGCAAGCAAUAUUACGUGGA` here?
Marked response: II

Exam item: Categorize the following entry: `GUCGAGCAAUAUUACGUAGU`
Marked response: II

Exam item: Record `CGUGAGCAAUAUUACGUACA` — which class?
Marked response: III

Exam item: Lab log: `UAUUAGCAAUAUUACGUUAA` — assign self-splicing fitness (ln) category
Marked response: III

Exam item: Into which bin does this sequence go? `GAGGAGCAAUAUUACGUUAC`
Marked response: I

Exam item: Note: place this sequence into its band. Item: `UGCCAGCAAUAUUACGCUAC`
Marked response: I

Exam item: Which category does the recorded self-splicing fitness (ln) put `CAUCAGCAAUAUUACGUUUG` in?
Marked response: III

Exam item: Exercise: read the entry `AUGAAGCAAUAUUACGAAUG` and state which class it falls under.
Marked response: III

Exam item: Class? Entry: `GGCUAGCAAUAUUACGAACA`
Marked response: III

Exam item: Given `ACCAAGCAAUAUUACGUUAC` , name the class its self-splicing fitness (ln) places it in.
Marked response: I

Exam item: Which bin, given its self-splicing fitness (ln), does `CAGCAGCAAUAUUACGACUA` occupy?
Marked response: III

Exam item: In plain terms, what class is `CUCUAGCAAUAUUACGCAUG` ?
Marked response: I

Exam item: Bin this entry: `GACCAGCAAUAUUACGUCCC`
Marked response: III

Exam item: Hi there! Could you help me figure out the category for `UCAGAGCAAUAUUACGGGCA` please?
Marked response: I

Exam item: Lab note: which band did `GCCCAGCAAUAUUACGAAAC` land in?
Marked response: III

Exam item: Form field 'band' for `CUGGAGCAAUAUUACGAUGG`
Marked response: I

Exam item: Kindly state the category for this sequence: `UCAUAGCAAUAUUACGACAG`
Marked response: III

Exam item: Input `CGAUAGCAAUAUUACGUGUC` ; output its category
Marked response: I

Exam item: Class label required: `UAAUAGCAAUAUUACGCGGG`
Marked response: I

Exam item: Tag the class for `CGUAAGCAAUAUUACGGUGU`
Marked response: I

Exam item: Hi, small favor: classify `CCGUAGCAAUAUUACGCAUA` by its self-splicing fitness (ln) when you get a moment.
Marked response: II

Exam item: Band assignment needed for `CCUUAGCAAUAUUACGAUAA` please.
Marked response: I

Exam item: GET /class?item= `ACGGAGCAAUAUUACGAGCU`
Marked response: I

Exam item: State the band of `UGAGAGCAAUAUUACGGUAA`
Marked response: I

Exam item: Which class is correct for the following sequence? `ACCCAGCAAUAUUACGUAUU`
Marked response: III

Exam item: Would you mind sorting `CAAAAGCAAUAUUACGCUGG` into the appropriate category?
Marked response: II

Exam item: Which self-splicing fitness (ln) category applies to `UACCAGCAAUAUUACGGGUC` here?
Marked response: II

Exam item: # bin label for `AUGUAGCAAUAUUACGAGCA`
Marked response: III

Exam item: Band assignment needed for `CGGCAGCAAUAUUACGUGCA` please.
Marked response: III

Exam item: Textbook exercise: identify the category of the sequence given here, `CCAAAGCAAUAUUACGCGGG` , according to its measured value.
Marked response: I

Exam item: Record `ACGGAGCAAUAUUACGUCAG` — which class?
Marked response: I

Exam item: Lab note: which band did `CACCAGCAAUAUUACGAAAA` land in?
Marked response: I

Exam item: Class for `UGGUAGCAAUAUUACGGCGC` ?
Marked response: III

Exam item: Entry `AAGGAGCAAUAUUACGAGCA` belongs to which category?
Marked response: II

Exam item: Which of the defined bands does the recorded self-splicing fitness (ln) of `UAGAAGCAAUAUUACGAGCG` sit within?
Marked response: III

Exam item: Into which category would you place `AGUAAGCAAUAUUACGAACC` ?
Marked response: III

Exam item: Each sequence maps to one class by self-splicing fitness (ln). Which class for `GUAUAGCAAUAUUACGCUCU` ?
Marked response: III

Exam item: Bin this entry: `GCUCAGCAAUAUUACGUUUG`
Marked response: II

Exam item: Band assignment needed for `UAUUAGCAAUAUUACGACUG` please.
Marked response: III

Exam item: Exercise: read the entry `GGGUAGCAAUAUUACGCUUU` and state which class it falls under.
Marked response: III

Exam item: Using the reported self-splicing fitness (ln), which band applies to `UGAUAGCAAUAUUACGGCGG` ?
Marked response: III

Exam item: Which self-splicing fitness (ln) band matches `CUGUAGCAAUAUUACGUCGA` ?
Marked response: II

Exam item: Place this sequence in its band: `UCAGAGCAAUAUUACGGUGU`
Marked response: I

Exam item: Please let me know in which category the item `UCAGAGCAAUAUUACGAAGC` belongs.
Marked response: II

Exam item: Form field 'band' for `CUUUAGCAAUAUUACGCUCG`
Marked response: III

Exam item: Which class holds `AUGAAGCAAUAUUACGACUU` ?
Marked response: III

Exam item: Assign a category based on measured self-splicing fitness (ln) for `UAGGAGCAAUAUUACGGUUA` and give only the class name.
Marked response: III

Exam item: Category of `UCAGAGCAAUAUUACGCGCC` :
Marked response: II

Exam item: Band assignment needed for `CGCAAGCAAUAUUACGUAAG` please.
Marked response: III

Exam item: Just checking, what class would you give `ACCGAGCAAUAUUACGUCUA` here?
Marked response: I

Exam item: Record `AUUUAGCAAUAUUACGUGGA` — which class?
Marked response: I

Exam item: Lab log: `UGACAGCAAUAUUACGUUCA` — assign self-splicing fitness (ln) category
Marked response: III

Exam item: Could you place `UAUAAGCAAUAUUACGUGUU` in its proper category? Many thanks.
Marked response: I

Exam item: Classify this sequence: `GGUCAGCAAUAUUACGUAAG`
Marked response: III

Exam item: Sort `CAGCAGCAAUAUUACGAAGG` into one of the categories.
Marked response: III

Exam item: Lab log: `AAUAAGCAAUAUUACGCAGG` — assign self-splicing fitness (ln) category
Marked response: III

====

- assay: self-splicing fitness, log relative to wild type (ln ratio); higher = more splicing; Tetrahymena group I intron in knt gene, E. coli kanamycin selection, DiMSum; sequences stand for … in CUCUCU…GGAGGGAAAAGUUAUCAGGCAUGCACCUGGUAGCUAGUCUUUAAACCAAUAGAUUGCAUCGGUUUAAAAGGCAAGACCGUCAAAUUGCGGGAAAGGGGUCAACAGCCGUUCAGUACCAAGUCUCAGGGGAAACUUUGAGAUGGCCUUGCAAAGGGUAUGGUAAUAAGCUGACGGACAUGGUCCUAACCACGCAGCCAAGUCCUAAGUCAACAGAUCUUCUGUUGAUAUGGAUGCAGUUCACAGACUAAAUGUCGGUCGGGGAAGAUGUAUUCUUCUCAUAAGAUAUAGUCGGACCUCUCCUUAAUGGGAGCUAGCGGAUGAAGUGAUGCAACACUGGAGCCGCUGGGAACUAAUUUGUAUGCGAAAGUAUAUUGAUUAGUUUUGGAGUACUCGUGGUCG
- recorded-conditions: 37 °C
reported-property: self-splicing fitness (ln)
Reply with the value as a number alone.

The measured self-splicing fitness (ln) associated with `AAGGAGCAAUAUUACGACUA` reads -0.705

Form: sequence = `UACAAGCAAUAUUACGGGGA` ; self-splicing fitness (ln) = -1.09

// self-splicing fitness (ln) value for `GUCGAGCAAUAUUACGUGUC` : -1.6

Documented self-splicing fitness (ln) of `ACCAAGCAAUAUUACGGGAA` : -2.19

Reported self-splicing fitness (ln) of `CCACAGCAAUAUUACGACAU` : -2.84

Recorded result, `CUCAAGCAAUAUUACGAAAG` , self-splicing fitness (ln): -0.747

The reported value for `CGCAAGCAAUAUUACGUAAG` in terms of self-splicing fitness (ln) is 0.113

The recorded self-splicing fitness (ln) for `AUAAAGCAAUAUUACGACCG` is -0.14

Note to self: self-splicing fitness (ln) recorded for `CUCGAGCAAUAUUACGAAAC` was -1.99

Reported self-splicing fitness (ln) ( `AUUGAGCAAUAUUACGGGAA` ) = -3.86
